For each record, write down the corresponding % binding retained in competition with Reference-Fab.
Target: T1, Human soluble IL6-R (human, UniProt P08887 20-358)
T1 construct: Bought soluble receptor; biotinylated in some Alphascreen assays; also called sIL6-R; hIL-6R
T1 sequence (looked up): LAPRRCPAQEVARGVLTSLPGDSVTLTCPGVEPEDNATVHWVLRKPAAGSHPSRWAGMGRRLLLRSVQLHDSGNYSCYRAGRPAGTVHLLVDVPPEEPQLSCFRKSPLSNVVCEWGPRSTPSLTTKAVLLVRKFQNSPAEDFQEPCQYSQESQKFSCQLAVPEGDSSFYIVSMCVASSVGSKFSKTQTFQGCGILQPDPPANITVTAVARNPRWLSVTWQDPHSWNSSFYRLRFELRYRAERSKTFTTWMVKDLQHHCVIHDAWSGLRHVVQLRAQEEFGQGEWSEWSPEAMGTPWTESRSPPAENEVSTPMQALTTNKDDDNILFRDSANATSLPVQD
Experiment: Alphascreen, 100 nM Nanobody; competitor Reference-Fab on beads

Specify % binding retained in competition with Reference-Fab for IL6R04 (VHH, also called PMP32C9; PMP 32 C9) VHH: EVQLVESGGGLVQAGGSLRLSCAASGFTFDDYDIGWFRQAPGKEREGVSGISSSDGNTYYADSVKGRFTISSDNAKNTVYLQMNSLKPEDTAVYYCAAEPPDSSWYLDGSPEFFKYWGQGTQVTVSS and stop.
50%

Specify % binding retained in competition with Reference-Fab for IL6R12 (VHH, also called PMP35F4; PMP 35 F4) VHH: EVQLVESGGGLVQAGGSLRLSCAASGRTFSSYDMGWYRQAPGKEREFVAIITWNSSTYYADSVKGRFTISRDNAKNTVYLQMNSLKPEDTAIYYCNAQYGLGYAEDYWGQGTQVTVSS and stop.
103%

Specify % binding retained in competition with Reference-Fab for IL6R14 (VHH, also called PMP40H5; PMP 40 H5) VHH: EVQLVESGGGLVQPGGSLRLSCAASGFSLDYYAIGWFRQAPGKEREGVSCMDSSSGTTSTYYSDSVKGRFTISRDDAKNTVYLQMNSLKPEDTAVYYCAADGHLNWGQRYVPCSQISWRGWNDYWGQGTQVTVSS and stop.
96%

Specify % binding retained in competition with Reference-Fab for IL6R10 (VHH, also called PMP35C10; PMP 35 C10) VHH: EVQLVESGGGLVQAGGSLRLSCAASGRTFSSYDMGWYRQAPGKEREFVAVIHWSSGSTYYADPVKGRFTISRDNAKNTVYLQMNSLKPEDTAIYYCNAFLPGPEGFHDYWGQGTQVTVSS and stop.
102%
